target: Gal(b1-4)GlcNAc(b1-3)Gal(b1-4)GlcNAc(b1-3)GalNAc
measurement.protocol: glycan array binding signal (z-score within array); higher = stronger binding
test.conditions: glycan notation: IUPAC condensed, linker removed
Shown is part of a subset that was picked to be rich in the strongest signals.
Measured glycan array binding signal (z-score) by item

binder: LTL (Lotus tetragonolobus), P19664 (protein) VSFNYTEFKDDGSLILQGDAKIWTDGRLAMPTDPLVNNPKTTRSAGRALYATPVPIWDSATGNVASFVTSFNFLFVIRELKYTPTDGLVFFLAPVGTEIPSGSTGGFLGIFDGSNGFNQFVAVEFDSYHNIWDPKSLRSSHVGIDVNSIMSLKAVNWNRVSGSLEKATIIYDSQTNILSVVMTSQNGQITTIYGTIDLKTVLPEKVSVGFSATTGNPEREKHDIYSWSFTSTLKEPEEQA
glycan array binding signal (z-score): 2.04
//
binder: Gal-9-hFc (Mus musculus), O08573-2 (protein) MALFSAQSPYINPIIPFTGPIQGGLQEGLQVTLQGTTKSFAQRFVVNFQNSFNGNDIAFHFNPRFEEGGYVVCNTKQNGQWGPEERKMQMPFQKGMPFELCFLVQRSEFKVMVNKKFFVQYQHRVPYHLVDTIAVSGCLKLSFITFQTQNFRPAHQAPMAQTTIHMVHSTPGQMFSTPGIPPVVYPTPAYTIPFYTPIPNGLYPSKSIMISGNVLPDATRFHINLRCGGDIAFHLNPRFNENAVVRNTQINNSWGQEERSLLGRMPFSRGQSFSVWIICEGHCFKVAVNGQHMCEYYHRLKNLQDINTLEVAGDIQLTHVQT
glycan array binding signal (z-score): 0.354
//
binder: AAL (Agrocybe aegerita), Q6WY08 (protein) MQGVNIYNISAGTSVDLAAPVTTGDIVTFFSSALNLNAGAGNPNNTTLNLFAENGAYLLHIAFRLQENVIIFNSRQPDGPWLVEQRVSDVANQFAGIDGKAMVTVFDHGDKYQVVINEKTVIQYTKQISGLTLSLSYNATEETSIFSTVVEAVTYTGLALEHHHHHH
glycan array binding signal (z-score): -0.131
//
binder: Erv46-EDTA (Saccharomyces cerevisiae), P39727 (protein) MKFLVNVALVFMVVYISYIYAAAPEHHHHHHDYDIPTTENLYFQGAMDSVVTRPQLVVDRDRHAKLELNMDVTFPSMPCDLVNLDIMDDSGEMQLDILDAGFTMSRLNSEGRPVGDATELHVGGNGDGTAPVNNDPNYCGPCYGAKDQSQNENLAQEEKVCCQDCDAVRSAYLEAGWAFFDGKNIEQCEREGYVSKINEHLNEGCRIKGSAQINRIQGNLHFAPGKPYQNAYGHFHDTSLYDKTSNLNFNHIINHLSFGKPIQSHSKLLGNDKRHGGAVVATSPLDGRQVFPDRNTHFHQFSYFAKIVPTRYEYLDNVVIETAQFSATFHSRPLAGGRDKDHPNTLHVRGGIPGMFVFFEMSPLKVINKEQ
glycan array binding signal (z-score): 2.4
//
binder: Gal 7 (Homo sapiens) (protein) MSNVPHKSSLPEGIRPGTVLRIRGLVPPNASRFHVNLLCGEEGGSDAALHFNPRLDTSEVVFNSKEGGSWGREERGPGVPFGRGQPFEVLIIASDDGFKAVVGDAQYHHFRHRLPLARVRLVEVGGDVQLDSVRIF
glycan array binding signal (z-score): -0.127
